Assay: Plasma pharmacokinetics by LC-MS/MS
Conditions: human, plasma, oral, Median Tmax [Min; Max], plasma binimetinib; Cycle 1 Day 1 (C1D1); Dose Level 5: AEB071 350 mg bid and MEK162 30 mg bid
measurementType: Tmax (h)
Kindly answer with a numeric value in h, unit omitted.

Identify measured Tmax associated with `Cn1cnc2c(F)c(Nc3ccc(Br)cc3F)c(C(=O)NOCCO)cc21`
2

---

Assay: Plasma pharmacokinetics by LC-MS/MS
Details: human, plasma, oral, Median AUC0–8hr [Min; Max], plasma binimetinib; Cycle 1 Day 1 (C1D1); Dose Level 2: AEB071 200 mg bid and MEK162 45 mg bid
measurementType: AUC(0-t) (ng·h/mL)
Kindly answer with a numeric value in ng·h/mL, unit omitted.

Identify measured AUC(0-t) associated with Cn1cnc2c(F)c(Nc3ccc(Br)cc3F)c(C(=O)NOCCO)cc21 [binimetinib]
1550
